- Study System: Human HDAC6 (Homo sapiens (Human), UniProt Q9UBN7)
- Sequence (Q9UBN7 whole entry): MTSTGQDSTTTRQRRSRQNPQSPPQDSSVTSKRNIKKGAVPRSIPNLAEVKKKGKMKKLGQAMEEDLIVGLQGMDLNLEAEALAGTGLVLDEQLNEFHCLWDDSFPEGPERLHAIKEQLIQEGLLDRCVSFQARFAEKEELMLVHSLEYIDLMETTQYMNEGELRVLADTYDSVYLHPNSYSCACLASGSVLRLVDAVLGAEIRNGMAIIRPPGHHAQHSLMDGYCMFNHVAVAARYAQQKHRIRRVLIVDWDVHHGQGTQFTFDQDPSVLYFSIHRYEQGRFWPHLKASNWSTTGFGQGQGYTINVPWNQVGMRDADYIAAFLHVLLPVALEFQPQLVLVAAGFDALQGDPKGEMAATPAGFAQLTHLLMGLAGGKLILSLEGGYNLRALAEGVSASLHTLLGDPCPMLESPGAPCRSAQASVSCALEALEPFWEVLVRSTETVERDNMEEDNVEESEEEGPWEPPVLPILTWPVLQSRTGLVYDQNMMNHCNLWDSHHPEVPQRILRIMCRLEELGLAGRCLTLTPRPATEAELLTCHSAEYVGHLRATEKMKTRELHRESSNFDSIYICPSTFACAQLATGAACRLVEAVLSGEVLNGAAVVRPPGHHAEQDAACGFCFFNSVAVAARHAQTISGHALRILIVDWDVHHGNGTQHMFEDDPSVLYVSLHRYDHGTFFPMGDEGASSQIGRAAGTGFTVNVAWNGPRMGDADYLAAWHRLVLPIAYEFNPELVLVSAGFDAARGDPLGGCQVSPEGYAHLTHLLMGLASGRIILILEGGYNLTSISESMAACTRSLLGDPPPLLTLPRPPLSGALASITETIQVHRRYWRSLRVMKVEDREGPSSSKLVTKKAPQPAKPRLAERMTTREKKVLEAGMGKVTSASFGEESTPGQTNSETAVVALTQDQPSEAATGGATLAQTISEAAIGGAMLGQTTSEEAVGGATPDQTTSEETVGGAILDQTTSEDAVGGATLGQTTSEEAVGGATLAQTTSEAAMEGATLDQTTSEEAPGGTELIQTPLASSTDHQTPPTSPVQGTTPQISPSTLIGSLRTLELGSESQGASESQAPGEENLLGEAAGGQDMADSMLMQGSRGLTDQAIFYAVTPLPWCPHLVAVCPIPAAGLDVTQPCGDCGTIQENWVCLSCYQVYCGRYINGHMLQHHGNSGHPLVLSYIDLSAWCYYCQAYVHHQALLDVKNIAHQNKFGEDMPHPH
- Protocol Notes: HDAC6 fluorogenic peptide deacetylation inhibition assay
- Format: biochemical
- Measurement Conditions: average of two experiments; read-out: HDAC Isoform IC50 (μM) 6
Assay Endpoint: IC50

Fill in: Human HDAC6 (Homo sapiens (Human), UniProt Q9UBN7) IC50 for `COC[C@H]1CCCN1Cc1ccc(C(=O)NO)cc1` = 1.25 µM

Fill in: Human HDAC6 (Homo sapiens (Human), UniProt Q9UBN7) IC50 for NC(=O)c1ccc(Cn2ccc3ccccc32)cc1 [Compound 22, 4-((1H-Indol-1-yl)methyl)benzamide] = > 30 µM

Fill in: Human HDAC6 (Homo sapiens (Human), UniProt Q9UBN7) IC50 for `O=C(NO)c1ccc(Cn2cc(Cc3ccccc3)c3ccccc32)cc1` = 0.0293 µM

Fill in: Human HDAC6 (Homo sapiens (Human), UniProt Q9UBN7) IC50 for `O=C(NO)c1ccc(Cn2cccc2)cc1` = 0.0313 µM

Fill in: Human HDAC6 (Homo sapiens (Human), UniProt Q9UBN7) IC50 for `CC(=O)NCCCc1nc2ccccc2n1Cc1ccc(C(=O)NO)cc1` = 0.047 µM

Fill in: Human HDAC6 (Homo sapiens (Human), UniProt Q9UBN7) IC50 for `O=C(NO)c1ccc(Cn2cccn2)cc1` = 0.0109 µM

Fill in: Human HDAC6 (Homo sapiens (Human), UniProt Q9UBN7) IC50 for `O=C(NO)c1ccc(Cn2ccc3ccccc32)cc1` = 0.00975 µM

Fill in: Human HDAC6 (Homo sapiens (Human), UniProt Q9UBN7) IC50 for `CS(=O)(=O)NCCc1cn(Cc2ccc(C(=O)NO)cc2)c2ccccc12` = 0.00017 µM

Fill in: Human HDAC6 (Homo sapiens (Human), UniProt Q9UBN7) IC50 for `O=C(NO)c1ccc(Cn2cnc3ccccc32)cc1` = 0.0294 µM

Fill in: Human HDAC6 (Homo sapiens (Human), UniProt Q9UBN7) IC50 for `Cc1cn(Cc2ccc(C(=O)NO)cc2)c2ccccc12` = 0.00511 µM

Fill in: Human HDAC6 (Homo sapiens (Human), UniProt Q9UBN7) IC50 for `O=C(NO)c1ccc(Cn2cnc3cncnc32)cc1` = 0.00348 µM

Fill in: Human HDAC6 (Homo sapiens (Human), UniProt Q9UBN7) IC50 for `CC(=O)c1ccc(Cn2ccc3ccccc32)cc1` = > 30 µM

Fill in: Human HDAC6 (Homo sapiens (Human), UniProt Q9UBN7) IC50 for `CN(C)c1cccc(Cc2ccc(C(=O)NO)cc2)c1` = 0.0701 µM

Fill in: Human HDAC6 (Homo sapiens (Human), UniProt Q9UBN7) IC50 for `CCN(CC)Cc1ccc(C(=O)NO)cc1` = 6.28 µM

Fill in: Human HDAC6 (Homo sapiens (Human), UniProt Q9UBN7) IC50 for CN1CCN(CCc2cn(Cc3ccc(C(=O)NO)cc3)c3ccccc23)CC1 [Compound 17] = 0.00294 µM

Fill in: Human HDAC6 (Homo sapiens (Human), UniProt Q9UBN7) IC50 for `Cc1c(C)n(Cc2ccc(C(=O)NO)cc2)c2ccccc12` = 0.00408 µM

Fill in: Human HDAC6 (Homo sapiens (Human), UniProt Q9UBN7) IC50 for `O=C(NO)c1ccc(CN2CCCC2)cc1` = 0.54 µM

Fill in: Human HDAC6 (Homo sapiens (Human), UniProt Q9UBN7) IC50 for `CN(C)c1ccc(Cc2ccc(C(=O)NO)cc2)cc1` = 0.0119 µM

Fill in: Human HDAC6 (Homo sapiens (Human), UniProt Q9UBN7) IC50 for `O=C(NO)c1ccc(CN(c2ccccc2)c2ccccc2)cc1` = 4.5 µM

Fill in: Human HDAC6 (Homo sapiens (Human), UniProt Q9UBN7) IC50 for `Cc1nc2ccccc2n1Cc1ccc(C(=O)NO)cc1` = 0.0092 µM

Fill in: Human HDAC6 (Homo sapiens (Human), UniProt Q9UBN7) IC50 for `CC(C)N(Cc1ccc(C(=O)NO)cc1)C(C)C` = 0.124 µM
